Compiled literature pIC50, tested on Receptor tyrosine-protein kinase erbB-2 (Homo sapiens, UniProt P04626).
pIC50: −log10 of the molar value.

Looking up Fc1cc(Cl)cc(CCNCc2ccc(-c3ccc4ncnc(Nc5ccc(OCc6cccc(F)c6)c(Cl)c5)c4c3)o2)c1 , I found its pIC50 recorded as < 5.00

// pIC50 lookup, molecule = CN(c1cccc(Cl)c1)c1ncnc(Nc2ccc(OCCO)cc2)n1 , result: 5.19 to 5.97

Reported pIC50 ( CN(c1cccc(Cl)c1)c1ncnc(Nc2cccc(Br)c2)n1 ) = < 4.94

The reported pIC50 of the molecule COc1ccc(Nc2ncnc(-n3c(N)nc4ccccc43)n2)cc1OC was < 4.91

pIC50 measured on c1ccc(Cn2ncc3cc(Nc4ncnc(Nc5cccc(Cn6ccnn6)c5)n4)ccc32)cc1 = > 6.07

pIC50 in this record for COc1ccc(Nc2ncnc(Nc3ccc4c(c3)CCC4)n2)cc1OC : 5.18 to 5.96

Short answer for C=CC(=O)N[C@H]1C[C@@H](n2nc(-c3ccc(Oc4ccccc4)cc3)c3c(N)ncnc32)C1 : pIC50 was 7.01

For CCN(CC)C/C=C/C(=O)N1CCOc2c1ccc1ncnc(Nc3ccc(Oc4ccn5ncnc5c4)c(C)c3)c21 the molecule record lists pIC50 as ≥ 7.30

Next:
The molecule listed as O=C(Nc1cccc(C(F)(F)F)c1)Nc1ncnc2nn3ccccc3c12 shows pIC50 equal to < 5.00

Quick note, pIC50 for O=S(=O)(Nc1cc(-c2nc(N3CCCC3)oc2-c2ccnc(Nc3ccc(N4CCN(CCF)CC4)c(F)c3)n2)ccc1F)c1c(F)cccc1F landed at 6.00 to 7.00

For CO/N=C/c1c(N)ncnc1Nc1ccc(OCc2ccccn2)c(Cl)c1 the molecule record lists pIC50 as 7.05

Entry under test: O=S(=O)(Nc1cccc(-c2nc(N3CCCCC3)sc2-c2ccnc(Nc3ccc(N4CCOCC4)c(F)c3)n2)c1)c1c(F)cccc1F . Its pIC50 was < 6.00

Per the record, NC(CCCNCc1ccc(-c2ccc3ncnc(Nc4ccc(OCc5cccc(F)c5)c(Cl)c4)c3c2)o1)C(=O)O (stereo not drawn) has pIC50 of > 5.00

Short answer for CCOc1ccc(Nc2nccc(-c3sc(N4CCCC4)nc3-c3cccc(NS(=O)(=O)c4c(F)cccc4F)c3)n2)cc1N1CCN(CCS(C)(=O)=O)CC1 : pIC50 was > 7.00

# molecule CCNc1nc(-c2cc(C)cc(OC)c2)c(-c2ccnc(Nc3ccc(N4CCN(CCS(C)(=O)=O)CC4)c(F)c3)n2)s1 ; its pIC50 = < 6.00

Record CN(C)C/C=C/C(=O)N1CCOc2c1ccc1ncnc(Nc3ccc(Oc4ccc(F)cc4)cc3)c21 . Reported pIC50: ≥ 7.30

Form field pIC50, entry C=CC(=O)N1CCOc2c1ccc1ncnc(Oc3ccc(Oc4cc(Cl)ccc4Cl)cc3)c21 : ≥ 7.30

Please fill in: pIC50 reported for c1ccc(-c2cc(Nc3ncnc(Nc4ccc5[nH]ncc5c4)n3)[nH]n2)cc1 = 5.19 to 5.97

Entry under test: COc1ccc(CO/N=C/c2c(N)ncnc2Nc2ccc3c(cnn3Cc3cccc(F)c3)c2)cc1 . Its pIC50 was 5.80

// O=C(O)CNC(=O)c1ccc(Nc2ncnc(Nc3cc(-c4ccco4)[nH]n3)n2)cc1 : pIC50 value = 5.24 to 6.02
